src = patent EP3056202A1

measurementProtocol: physchem
Format: physicochemical
settings: pH 7.4, aqueous buffer, kinetic from dmso stock
For each of the compounds below, state its solubility at 24 h.

Q: Answer with the recorded solubility at 24 h of CC[C@@H](NC(=O)c1ccc2c(c1)/C(=C(/Nc1ccc(CN3CCN(C)CC3)cc1)c1ccccc1)C(=O)N2)c1ccccc1 only.
A: < 10 µM

Q: Answer with the recorded solubility at 24 h of COc1ccc([C@@H](C)NC(=O)c2ccc3c(c2)/C(=C(/Nc2ccc(CN4CCCCC4)cc2)c2ccccc2)C(=O)N3)cc1 only.
A: < 10 µM

Q: Answer with the recorded solubility at 24 h of CC[C@@H](NC(=O)c1ccc2c(c1)/C(=C(/Nc1ccc(CN3CCCCC3)cc1)c1ccccc1)C(=O)N2)c1ccccc1 only.
A: < 10 µM

Q: Answer with the recorded solubility at 24 h of COc1cccc([C@@H](C)NC(=O)c2ccc3c(c2)/C(=C(/Nc2cccc(CN4CCCCC4)c2)c2ccccc2)C(=O)N3)c1 only.
A: < 10 µM

Q: Answer with the recorded solubility at 24 h of COc1ccc(CNC(=O)c2ccc3c(c2)/C(=C(/Nc2ccc(CN4CCN(C)CC4)cc2)c2ccccc2)C(=O)N3)cc1OC only.
A: < 10 µM

Q: Answer with the recorded solubility at 24 h of COc1cccc([C@@H](C)NC(=O)c2ccc3c(c2)/C(=C(/Nc2ccc(CN4CCCCC4)cc2)c2ccccc2)C(=O)N3)c1 only.
A: < 10 µM

###

System: human Akt1 kinase (Homo sapiens, UniProt P31749) | Read-out: IC50
Sequence (P31749 whole entry): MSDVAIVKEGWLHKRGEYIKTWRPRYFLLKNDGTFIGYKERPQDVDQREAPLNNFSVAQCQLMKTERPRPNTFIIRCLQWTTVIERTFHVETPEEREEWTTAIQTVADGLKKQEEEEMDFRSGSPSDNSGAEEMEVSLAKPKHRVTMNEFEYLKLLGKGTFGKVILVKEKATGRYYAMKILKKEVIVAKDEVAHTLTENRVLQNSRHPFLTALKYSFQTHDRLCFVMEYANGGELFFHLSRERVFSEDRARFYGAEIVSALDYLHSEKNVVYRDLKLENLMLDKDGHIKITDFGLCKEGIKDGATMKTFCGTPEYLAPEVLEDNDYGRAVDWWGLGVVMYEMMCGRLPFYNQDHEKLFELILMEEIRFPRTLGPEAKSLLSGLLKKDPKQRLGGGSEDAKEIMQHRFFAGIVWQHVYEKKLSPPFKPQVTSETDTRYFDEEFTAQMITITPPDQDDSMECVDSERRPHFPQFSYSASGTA
Report only the number, with the unit nM understood.

Q: Answer with the recorded IC50 of COc1cccc([C@@H](C)NC(=O)c2ccc3c(c2)/C(=C(/Nc2ccc(CN4CCN(C)CC4)cc2)c2ccccc2)C(=O)N3)c1 only.
A: 2510

Q: Answer with the recorded IC50 of C[C@@H](NC(=O)c1ccc2c(c1)/C(=C(/Nc1cccc(CN3CCCCC3)c1)c1ccccc1)C(=O)N2)c1ccccc1 only.
A: 5940

Q: Answer with the recorded IC50 of CC[C@@H](NC(=O)c1ccc2c(c1)/C(=C(/Nc1ccc(CN3CCN(C)CC3)cc1)c1ccccc1)C(=O)N2)c1ccccc1 only.
A: 2050

###

Test system: A549 human lung carcinoma cells
measurementProtocol: Cell-based EC50 determination, A549 cells (CellTiter-Glo cell viability)
settings: A549, 24 h, read-out: A549 EC50 24h
pEC50: −log10 of the molar value.
For each of the molecules below, state its pEC50.

Q: Answer with the recorded pEC50 of COc1ccc([C@@H](C)NC(=O)c2ccc3c(c2)/C(=C(/Nc2ccc(CN4CCCCC4)cc2)c2ccccc2)C(=O)N3)cc1 [Compound 21] only.
A: < 4.52

Q: Answer with the recorded pEC50 of O=C1Nc2ccc(C(=O)NCc3ccccc3)cc2/C1=C(/Nc1ccc(CN2CCCCC2)cc1)c1ccccc1 [Compound 20] only.
A: < 4.52

Q: Answer with the recorded pEC50 of CC[C@@H](NC(=O)c1ccc2c(c1)/C(=C(/Nc1ccc(CN3CCCCC3)cc1)c1ccccc1)C(=O)N2)c1ccccc1 [Compound 18] only.
A: < 4.52
